# System: HOP-62 NSCLC
# protocol-details: NCI-60 one-dose screen, 48 h (100 = growth as untreated, 0 = no growth, -100 = all killed)
# condition-context: 10 µM unless noted
Compounds without any hit were thinned out: in the full panel of roughly 83,000, 20% have a hit.
metric-name: growth (%)
Number in %, nothing else.

For orientation, consider the following solved cases.
compound: COc1cccc(/C=C/c2c(C(=O)O)cccc2[N+](=O)[O-])c1OC
growth [%]: 95.5
--
compound: CCOC(=O)/C=C\C(=O)NC(N)=O
growth [%]: 87.8
--
compound: O=C1c2ccccc2C(=O)c2c1oc1oc3c(c(=O)c21)c(=O)n(-c1ccccc1)c1ccccc31
growth [%]: 36.1
--
compound: COc1cc(NS(C)(=O)=O)ccc1Nc1c2ccc([N+](=O)[O-])cc2nc2c(C)cccc12
growth [%]: -2.67
--
compound: O=S(=O)(c1ccccc1)n1ccc(-c2ccc3c(c2)CCO3)n1
growth [%]: 98.8
--
compound: Cc1cc(N/C=c2\sc3ncnn3c2=O)no1
growth [%]: 103
--
compound: O=C(c1c[nH]c2ccccc12)C(Sc1nc2ccccc2c(=O)[nH]1)c1ccccc1 (stereo not given)
growth [%]: 89.6
--
compound: Cc1ccc2nc(-c3c(N)n[nH]c3CCCO)[nH]c(=O)c2c1
growth [%]: 92.1
--
compound: NC(CC(N)C(=O)O)C(=O)O (stereo not given)
growth [%]: 117

Task: Identify measured growth associated with COc1ccc(NC(=O)CSc2nc3ccc(Cl)cc3c(=O)n2-c2ccccc2C(F)(F)F)c(OC)c1OC
Result: 60.6

====

# Test system: BT-549 breast
# protocol-details: NCI-60 one-dose screen, 48 h (100 = growth as untreated, 0 = no growth, -100 = all killed)
# condition-context: 10 µM unless noted
# Experimental: Growth inhibition of the BT-549 human tumor cell line is measured as a screen for anti-cancer activity. Cells are grown in 96 well plates and exposed to the test compound for 48 hours. Compounds are tested at a single concentration, which is 10^-5 M for most compounds. The reported endpoint is percent growth (GI% or GIPRCNT), where numbers from 0 - 100% represent growth inhibition, and numbers from -100% - 0 represent cell death. For example, a value of 40 represents 60% growth inhibition. […]
About 83,000 compounds went through this panel and 20% of them were active in at least one assay; those are over-represented in the sample as a whole.
metric-name: growth (%)
Number in %, nothing else.

molecule: Cc1ccc(Nc2ncnc3c2sc2ncccc23)cc1
unit-descriptor: %
growth: 111
--
molecule: COc1cc(-c2csc(NC(=O)c3cc(C(F)(F)F)cc(C(F)(F)F)c3)n2)cc(OC)c1OC
unit-descriptor: %
growth: 18.7
--
molecule: O=C1c2ccccc2C(=O)c2c(N=Nc3sc(=O)[nH]c3S)cccc21
unit-descriptor: %
growth: 109
--
molecule: CCSc1nnc(NC(=O)Cc2ccc(Cl)cc2)s1
unit-descriptor: %
growth: 109
--
molecule: Cc1oc2nc[nH]c(=O)c2c1C(=O)/C=C/c1ccc(Cl)cc1Cl
unit-descriptor: %
growth: 73.8

Task: Identify measured growth associated with CC(C)C[C@H](NC(=O)[C@H](Cc1ccccc1)n1ccc(N2CCCCC2)cc1=O)B(O)O
Result: 31.3

Task: Identify measured growth associated with COc1ccc(/C=C2\Oc3cc(OCCN4CCCC4)ccc3C2=O)c(OC)c1
Result: 94.2

Task: Identify measured growth associated with COc1ccc(C2CC(c3cccs3)=NN2c2ccc(S(=O)(=O)NC(=O)NCc3cccc(OC)c3)cc2)cc1 (stereo not given)
Result: 116

Task: Identify measured growth associated with c1ccn2nnnc2c1
Result: 67.2

Task: Identify measured growth associated with CC/C=C\C[C@H](O)C/C=C1/C(=O)C(Cl)=C[C@@H]1C/C=C\CCCC(=O)OC
Result: -85.5

====

The reader will find reported growth values listed item by item below.
# System: NCI-H322M lung
# protocol-details: NCI-60 one-dose screen, 48 h (100 = growth as untreated, 0 = no growth, -100 = all killed)
# condition-context: 10 µM unless noted
About 83,000 compounds went through this panel and 20% of them were active in at least one assay; those are over-represented in the sample as a whole.
Number in %, nothing else.

For orientation, consider the following solved cases.
compound: COc1cccc(C2CC(=O)Nc3c2c(C)nn3-c2nc3ccccc3[nH]2)c1OC (stereo not given)
growth [%]: 60
--
compound: O=C(Nc1ccc(I)cc1)c1cc([N+](=O)[O-])ccc1O
growth [%]: 29.7
--
compound: COc1cc2oc(-c3cccc(NC(=O)Nc4ccc5c(c4)OCO5)c3)cc(=O)c2c(OC)c1OC
growth [%]: 79.4
--
compound: CCOP(=O)(CCN1CCN(CCCCCOc2cc3c(cc2OC)C(=O)N2CCC[C@H]2C=N3)CC1)OCC
growth [%]: 140

// switching to the query compound
Task: Identify measured growth associated with CCCCCCCN(CCCCCCC)C(=N)c1ccc(OC)c2ccccc12
Result: -89

====

The reader will find reported growth values listed item by item below.
# Test system: COLO 205 colon
# protocol-details: NCI-60 one-dose screen, 48 h (100 = growth as untreated, 0 = no growth, -100 = all killed)
# condition-context: 10 µM unless noted
This is part of a sample that, as a whole, favours compounds with a hit. Of some 83,000 tested, about 20% had one in any assay.
Number in %, nothing else.

For orientation, consider the following solved cases.
compound: CC(=O)OC[Si](C)(C)c1ccccc1
unit-descriptor: %
growth: 117
//
compound: CC(=O)Nc1ccc(S(=O)(=O)N2C(=O)CCC2C(=O)Nc2ccccc2)cc1 (stereo not given)
unit-descriptor: %
growth: 12.1
//
compound: C[N+](C)(C)c1ccc(CC2c3ccccc3-c3ccccc32)cc1
unit-descriptor: %
growth: 59.8
//
compound: CC(=O)Nc1nc(C(=O)N2N=C(C)/C(=C/c3ccccc3)C2=O)cs1
unit-descriptor: %
growth: 103

Task: Identify measured growth associated with Cc1ccc(S(=O)(=O)OC2COCOC2C(OS(=O)(=O)c2ccc(C)cc2)C2OCOCC2OS(=O)(=O)c2ccc(C)cc2)cc1 (stereo not given)
Result: 108

====

# Test system: PC-3 prostate
# protocol-details: NCI-60 one-dose screen, 48 h (100 = growth as untreated, 0 = no growth, -100 = all killed)
# condition-context: 10 µM unless noted
This is part of a sample that, as a whole, favours compounds with a hit. Of some 83,000 tested, about 20% had one in any assay.
Given measured growth, output YES if it is greater than or equal to 90% and NO if not.

Examples from the recorded data:
structure-notation: CC(C)C[C@H](NC(=O)[C@@H](Cc1ccccc1)n1ccc(Nc2ccccc2)cc1=O)B(O)O
class-name: NO

structure-notation: CC(C)(C)c1ccc(S(=O)(=O)Oc2ccc3c4c(c(=O)oc3c2)CCCCC4)cc1
class-name: NO

structure-notation: O=S(=O)(NCCCNc1cc(-c2cn(-c3ccccc3)nc2-c2cccc(O)c2)ccn1)c1ccc(Br)cc1
class-name: NO

structure-notation: NC(=O)c1ccc2c(c1)OCO2
class-name: YES

structure-notation: CC(=O)OC[Si](C)(C)c1ccccc1
class-name: YES

Task: API: above_or_equal(metric=growth, cutoff=90%) for item C=C1C(=O)O[C@H]2[C@H]1CC/C(COC(=O)NCc1cc(OC)cc(OC)c1)=C\CC[C@@]1(C)O[C@@H]21
Result: NO

Task: API: above_or_equal(metric=growth, cutoff=90%) for item CNC(C)=O
Result: YES

Task: API: above_or_equal(metric=growth, cutoff=90%) for item CCCCCCCCCCn1cc[n+](C)c1
Result: NO

Task: API: above_or_equal(metric=growth, cutoff=90%) for item COc1cc(NCCCN=C(N)NC(N)=NC(C)C)c2ncccc2c1
Result: NO

====

# Tested on: SK-MEL-28 melanoma
# protocol-details: NCI-60 one-dose screen, 48 h
# condition-context: 10 µM unless noted
Compounds without any hit were thinned out: in the full panel of roughly 83,000, 20% have a hit. The source made the active and inactive calls. The calls were made as follows: active = growth percent below 10; inactive = the rest.
Choose one outcome from this list and give only that: active, inactive

compound: C[C@]12CC[C@@H]3c4cc(O)c(O)cc4CC[C@H]3[C@@H]1CC[C@@H]2O
class-name: inactive

Task: Query: recorded result category for COc1cc(CCn2nnc3c(NCCCCO)ncnc32)cc(OC)c1 in this test
Result: inactive

Task: Query: recorded result category for COc1cccc(C2CC(=O)Nc3c2c(C)nn3-c2nc3ccccc3[nH]2)c1OC (stereo not given) in this test
Result: inactive

Task: Query: recorded result category for O=C(CNc1ccc(Cl)cc1)Nc1ccc(-c2nc3ccccc3s2)cc1 in this test
Result: inactive

Task: Query: recorded result category for CCN(Cc1ccc(CN(CC)C(=O)C(Br)Br)cc1)C(=O)C(Br)Br in this test
Result: inactive

Task: Query: recorded result category for COc1cc(/C=C/C(=O)c2ccc(NC(=O)CN3CCN(c4cc5c(cc4F)c(=O)c(C(=O)O)cn5C4CC4)CC3)cc2)cc(OC)c1OC in this test
Result: inactive
